The reported numbers originate from patent US20120252853A1.

# measured target: human α7 receptor (Homo sapiens)
# Sequence (P36544 23-502): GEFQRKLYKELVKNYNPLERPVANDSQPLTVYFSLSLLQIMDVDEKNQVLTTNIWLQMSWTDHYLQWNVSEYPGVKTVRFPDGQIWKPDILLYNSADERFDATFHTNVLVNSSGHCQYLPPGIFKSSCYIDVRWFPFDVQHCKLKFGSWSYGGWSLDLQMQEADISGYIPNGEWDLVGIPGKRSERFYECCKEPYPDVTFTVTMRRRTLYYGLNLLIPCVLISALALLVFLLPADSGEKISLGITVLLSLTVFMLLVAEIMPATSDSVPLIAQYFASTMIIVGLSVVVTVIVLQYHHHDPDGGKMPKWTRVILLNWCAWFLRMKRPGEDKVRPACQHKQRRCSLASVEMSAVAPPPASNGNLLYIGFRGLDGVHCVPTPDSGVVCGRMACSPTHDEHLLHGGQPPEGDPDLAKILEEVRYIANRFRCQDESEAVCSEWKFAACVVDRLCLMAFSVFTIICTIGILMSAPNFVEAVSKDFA
# experiment: α7 NNR flux assay (FDSS Ca assay)
# measurement conditions: positive allosteric modulation; rat GH4C1 cell line stably expressing human α7; acetylcholine 20 μM; % modulation relative to PNU-120596 set to 100%
Below, each of the compounds is paired with its reported log10 of EC50 value.
// units: µM (pre-log); metric: EC50; scale: log10

Sample records with log10 of EC50:
compound	readout number
Cc1cc(C(=O)NCc2ccc3[nH]c(C#N)cc3c2)sn1	0.52
Cc1cc(C(=O)N[C@H](C)c2ccc3[nH]c(C)cc3c2)on1	0.37
Cc1cc2cc(CNC(=O)c3cc(C)on3)ccc2[nH]1	0.51

## Input Any idea what its log10 of EC50 is? The compound is `O=C(NCc1ccc2c(ccn2C(F)F)c1)c1cc(CC(F)(F)F)no1`
## Output 0.88

## Input Any idea what its log10 of EC50 is? The compound is Cc1cc(C(=O)NC(C)c2ccc3[nH]c(C(F)(F)F)cc3c2)on1 (single isomer, unassigned) [Compound 96]
## Output 0.62

## Input Any idea what its log10 of EC50 is? The compound is `Cc1cc(C(=O)N[C@H](C)c2cc3cc(C)[nH]c3cc2F)on1`
## Output 0.00

---

# measured target: UniProt P36544
# experiment: α7 NNR flux assay (FDSS Ca assay)
# measurement conditions: positive allosteric modulation; rat GH4C1 cell line stably expressing human α7; acetylcholine 20 μM; % modulation relative to PNU-120596 set to 100%
Below, each of the molecules is paired with its reported pEC50 value.
In simple prose, pEC50 is minus the logarithm base ten of a concentration in moles per litre.

molecule	pEC50
Cc1cc2cc(CNC(=O)c3cnn(C4CCOC4)c3)ccc2[nH]1 (stereo not drawn) [Compound 51]	5.21
Cc1cc2cc(CNC(=O)c3ccc[nH]3)ccc2[nH]1 [Compound 14]	5.13

Let's switch to this molecule now.
## Input Any idea what its pEC50 is? The molecule is Cc1cc2cc([C@@H](C)NC(=O)c3cnc(C)s3)ccc2[nH]1 [Compound 42]
## Output 5.25

---

# measured target: human α7 receptor (Homo sapiens)
# experiment: α7 NNR flux assay (FDSS Ca assay)
# measurement conditions: positive allosteric modulation; rat GH4C1 cell line stably expressing human α7; acetylcholine 20 μM; % modulation relative to PNU-120596 set to 100%
Below, each of the molecules is paired with its reported pEC50 value.
In simple prose, pEC50 is minus the logarithm base ten of a concentration in moles per litre.

Sample records with pEC50:
molecule	readout number
Cc1cc2cc(CNC(=O)c3ccno3)ccc2[nH]1	5.13
CCn1cc(C(=O)N[C@H](C)c2ccc3[nH]c(C)cc3c2)cn1	5.66
Cc1cc2cc([C@@H](C)NC(=O)c3cnn(C4COC4)c3)ccc2[nH]1	5.28
Cc1cc(C(=O)NCc2cc3cc(C)[nH]c3cc2F)on1	5.38

## Input Any idea what its pEC50 is? The molecule is `Cc1cc2cc(CNC(=O)c3cc(C(C)C)no3)ccc2[nH]1`
## Output 6.05

---

# measured target: human α7 receptor (Homo sapiens)
# experiment: α7 NNR flux assay (FDSS Ca assay)
# measurement conditions: positive allosteric modulation; rat GH4C1 cell line stably expressing human α7; acetylcholine 20 μM; % modulation relative to PNU-120596 set to 100%
Below, each of the molecules is paired with its reported EC50 value.
Lab book: enter the figure in µM, no units written.

Sample records with EC50:
molecule	EC50, µM
Cc1cc2cc(CNC(=O)c3cc(CC(F)(F)F)no3)ccc2n1C(F)F	9.4
Cc1cc2cc(CNC(=O)c3cnn(C4COC4)c3)ccc2[nH]1	6.5
Cc1cc2cc(CNC(=O)c3occc3C)ccc2[nH]1	2.7
Cc1cc(C(=O)NCc2ccc3[nH]ccc3c2)on1	8.57
Cc1cc2cc([C@@H](C)NC(=O)c3cc(CCF)no3)ccc2[nH]1	0.79

## Input Enter reported EC50 observed with human α7 receptor (Homo sapiens) for `Cc1cc2cc(CNC(=O)c3cnn(C)c3)ccc2[nH]1`
## Output 9.25

## Input Enter reported EC50 observed with human α7 receptor (Homo sapiens) for Cc1cc(C(=O)NC(C)c2ccc3[nH]c(C(F)(F)F)cc3c2)on1 (single isomer, unassigned) [Compound 97]
## Output 5.2

## Input Enter reported EC50 observed with human α7 receptor (Homo sapiens) for `Cc1cc2cc(CNC(=O)c3sccc3Cl)ccc2[nH]1`
## Output 2.9
